# measurementTarget: Prostaglandin G/H synthase 1 (Homo sapiens) (UniProt P23219);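 further: human whole blood assay, COX-1 activity read out as TXB2 level by enzyme immunoassay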
# Sequence (P23219 whole entry): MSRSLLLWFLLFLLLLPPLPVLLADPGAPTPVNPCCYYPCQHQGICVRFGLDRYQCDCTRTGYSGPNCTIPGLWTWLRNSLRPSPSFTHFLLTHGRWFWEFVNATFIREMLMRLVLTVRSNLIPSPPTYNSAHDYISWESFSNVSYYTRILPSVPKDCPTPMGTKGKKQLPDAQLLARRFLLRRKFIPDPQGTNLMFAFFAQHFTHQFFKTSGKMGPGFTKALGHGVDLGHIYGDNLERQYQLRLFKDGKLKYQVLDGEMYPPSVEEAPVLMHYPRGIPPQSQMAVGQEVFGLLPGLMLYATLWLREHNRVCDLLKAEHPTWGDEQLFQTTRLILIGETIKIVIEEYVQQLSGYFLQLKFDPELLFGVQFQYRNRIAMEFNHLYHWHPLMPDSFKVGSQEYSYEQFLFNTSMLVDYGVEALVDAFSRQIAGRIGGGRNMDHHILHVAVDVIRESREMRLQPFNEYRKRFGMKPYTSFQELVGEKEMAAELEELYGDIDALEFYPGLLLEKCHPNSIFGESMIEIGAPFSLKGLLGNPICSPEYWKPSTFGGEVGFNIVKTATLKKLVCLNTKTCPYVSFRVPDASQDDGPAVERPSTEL
# assayContext: Blood, at 10 µM
# Description: Inhibition of cyclooxygenase-1 in Homo sapiens (human) whole blood assessed as TXB2 level at 10 uM by EIA
Below, each of the compounds is paired with its reported inhibition value.
Quick note: give the figure in %, leave out the unit.

testsmiles=O=C(Cn1c(=O)sc2cc(C(=O)c3ccccc3F)ccc21)Nc1ccccc1 measurementtarget="Prostaglandin G/H synthase 1 (Homo sapiens) (UniProt P23219)" recordedresult=5.61
testsmiles=O=C(Cn1c(=O)sc2cc(C(=O)c3ccccc3F)ccc21)Nc1ccc(Cl)cc1 measurementtarget="Prostaglandin G/H synthase 1 (Homo sapiens) (UniProt P23219)" recordedresult=10.4
testsmiles=O=C(Cn1c(=O)sc2cc(C(=O)c3ccccc3Cl)ccc21)Nc1ccc(Cl)cc1 measurementtarget="Prostaglandin G/H synthase 1 (Homo sapiens) (UniProt P23219)" recordedresult=39.2
testsmiles=O=C(Cn1c(=O)sc2cc(C(=O)c3ccccc3F)ccc21)Nc1ccccn1 measurementtarget="Prostaglandin G/H synthase 1 (Homo sapiens) (UniProt P23219)" recordedresult=17.8

Let's switch to this compound now.
Data request: Need inhibition, item `Cc1ccnc(NC(=O)Cn2c(=O)sc3cc(C(=O)c4ccccc4Cl)ccc32)c1`
Data returned: 10.1

Reference source for all entries: ChEMBL document CHEMBL3045772
